# System: SN12C
# experimentSummary: NCI tumour cell line growth inhibition, 48 h
Activity calls are given as the source filed them. No stated cut-off is given here; in the data, active = GI50 up to about 1.1 µM and inactive = higher.
Outcomes: TRUE (active), FALSE (inactive)

1) O=C1OCCC12CN(Cc1ccccc1)N=N2 (stereo unspecified)	FALSE
2) Clc1ccc(Cc2nc3cc(CCN4CCN(c5ccccc5)CC4)ccc3[nH]2)cc1	FALSE
3) CCCCN(c1ccccc1)c1ncnc2c1cnn2C	FALSE
4) CCOC(=O)CNC(=O)OCc1ccccc1	FALSE
5) CC1(C(=O)O)CCC(C(=O)O)C(C)(C)O1 (stereo unspecified)	FALSE
6) CSc1nc2c(ncn2C2OCC(O)C(O)C2O)c(=O)[nH]1 (stereo unspecified)	FALSE
7) CC1(C)C2CCC1(C)C(NC(=O)CCN1CCOCC1)C2 (stereo unspecified)	FALSE
8) O=C(Cc1ccccc1)NNc1nc(NNC(=O)c2ccncc2)nc(Nc2cccc(Cl)c2)n1	FALSE
9) COC(=O)C(/C(=N/NC(N)=O)C(=O)Nc1ccc(C)cc1)c1nc2ccc([N+](=O)[O-])cc2nc1O (stereo unspecified)	FALSE
10) CN(C(=O)c1ccccc1)c1ccc2c(c1)C(=O)c1ccccc1C2=O	FALSE
11) COC[C@H]1C(=O)NCC(=O)N2N=CCC[C@H]2C(=O)N(O)[C@H](C)C(=O)O[C@@H](C(C)C)[C@H](NC(=O)[C@@](C)(O)[C@]2(O)CC[C@@H](CC(C)C)[C@H](C)O2)C(=O)N2NCCC[C@@H]2C(=O)N1O	TRUE
12) Cc1ccc(/C=N/n2c(-c3ccc(C)cc3)n[nH]c2=O)cc1	FALSE
13) Nc1ncc(Cl)c(NCC2(CO)CC(CCc3ccccc3)C2)n1 (stereo unspecified)	FALSE
14) CCCCCCCCCCC(O)[C@H]1CCC(C2CC[C@H]([C@H](O)CCCCCCCCCCC(O)CC3=CC(C)OC3=O)O2)O1 (stereo partly specified)	FALSE
15) CCC(Oc1ccc(OC)c2c1C(=O)CCC2)C(=O)O (stereo unspecified)	FALSE
16) Fc1cc2nc3n(c2cc1F)C(c1c(F)cccc1F)SC3 (stereo unspecified)	FALSE
17) O=C(ON=C1c2ccccc2C(Br)C(Br)c2ccccc21)c1cc([N+](=O)[O-])cc([N+](=O)[O-])c1 (stereo unspecified)	FALSE
18) CCc1nc(N)nc(N)c1-c1ccc(NC)c([N+](=O)[O-])c1	TRUE
19) CC(=O)NC1=C(NCC(C)C)C(=O)c2ccccc2C1=O	FALSE
20) Cc1nc2cc(C(F)(F)F)ccc2[nH]c1=O	FALSE
21) COc1ccc(/C=N/N2C(=O)c3c(N)c(C#N)c(-c4ccccc4)c(-c4ccccc4)c3C2=O)cc1	FALSE
